molecular target: human p38 kinase alpha (Homo sapiens, UniProt Q16539); construct: GST (N, cleaved yes); made in house; host or cells: E. coli DH10B; test: p38 kinase in vitro assay, phosphorylation of biotinylated PHAS-I with 32P-ATP; format: biochemical; settings: in vitro P38-alpha kinase; read-out: P38 alpha kinase IC50
Sequence (Q16539 whole entry): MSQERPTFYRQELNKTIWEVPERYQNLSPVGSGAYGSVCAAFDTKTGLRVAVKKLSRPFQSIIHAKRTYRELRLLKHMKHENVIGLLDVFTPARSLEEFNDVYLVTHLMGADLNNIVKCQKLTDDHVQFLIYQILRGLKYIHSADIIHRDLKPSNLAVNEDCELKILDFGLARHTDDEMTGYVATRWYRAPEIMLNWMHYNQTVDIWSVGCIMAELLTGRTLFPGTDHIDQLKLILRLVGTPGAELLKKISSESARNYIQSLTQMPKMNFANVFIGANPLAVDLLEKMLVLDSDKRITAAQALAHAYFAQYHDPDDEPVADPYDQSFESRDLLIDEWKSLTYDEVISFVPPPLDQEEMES
pIC50: −log10 of the molar value.
readout_type: pIC50

Would you please look over these solved cases?
line_notation=O=S(=O)(c1ccc(-c2ccccn2)s1)N1CCC(c2[nH]nc(-c3ccc(F)cc3)c2-c2ccncc2)CC1 readout_type=pIC50 quantitative_result=5.77
line_notation=O=C(NCCCc1[nH]nc(-c2ccc(F)cc2)c1-c1ccncc1)c1ccc(Cl)cc1 readout_type=pIC50 quantitative_result=6.92
line_notation=O=S(=O)(c1ccc(Cl)cc1Cl)N1CCC(c2[nH]nc(-c3ccc(F)cc3)c2-c2ccncc2)CC1 readout_type=pIC50 quantitative_result=5.79

P = NS(=O)(=O)c1ccc(CCNC(=O)NCCCc2[nH]nc(-c3ccc(F)cc3)c2-c2ccncc2)cc1
Q = Cc1ccc(F)cc1S(=O)(=O)NCCCc1[nH]nc(-c2ccc(F)cc2)c1-c1ccncc1
Between P and Q , which one has the lower reported pIC50 value? I would appreciate it if you answered with the label of your choice.
Q

1 = N#Cc1cccc(S(=O)(=O)N2CCC(c3[nH]nc(-c4ccc(F)cc4)c3-c3ccncc3)CC2)c1
2 = O=S(=O)(c1ccc(Cl)s1)N1CCC(c2[nH]nc(-c3ccc(F)cc3)c2-c2ccncc2)CC1
Between 1 and 2 , which one has the lower reported pIC50 value? I would appreciate it if you answered with the label of your choice.
2

====

target: human p38 kinase alpha (Homo sapiens); construct: GST (N, cleaved yes); made in house; host or cells: E. coli DH10B; experiment: p38 kinase in vitro assay, phosphorylation of biotinylated PHAS-I with 32P-ATP; assay type: biochemical; conditions: in vitro P38-alpha kinase inhibition; read-out: P38 alpha kinase IC50
pIC50: −log10 of the molar value.
readout_type: pIC50

molecule="O=C(Nc1ccc(F)cc1)NC(Cc1ccccc1)c1[nH]nc(-c2ccc(F)cc2)c1-c1ccncc1 (stereo not drawn) [Example B-0728]" quantitative_result=4.70

A = CNC(=O)NC(Cc1ccccc1)c1[nH]nc(-c2ccc(F)cc2)c1-c1ccncc1 (stereo not drawn) [Example B-0730]
B = CC(C)c1cc(C(C)C)c(C(=O)NC(C)c2[nH]nc(-c3ccc(F)cc3)c2-c2ccncc2)c(C(C)C)c1 (stereo not drawn) [Example B-0674]
Between A and B , which one has the lower reported pIC50 value? I would appreciate it if you answered with the label of your choice.
B
(B: 5.55, A: 6.60)

====

Molecular target: human p38 kinase alpha (Homo sapiens)
Construct: GST (N, cleaved yes); made in house; host or cells: E. coli DH10B
Experiment: p38 kinase in vitro assay, phosphorylation of biotinylated PHAS-I with 32P-ATP
Assay type: biochemical
Settings: in vitro P38-alpha kinase inhibition; read-out: P38 alpha kinase IC50
Protocol: The coding region of the human p38a cDNA was obtained by PCR-amplification from RNA isolated from the human monocyte cell line THP.1. […] Random primer, dNTP's and Superscript™ reagents were all purchased from Life-Technologies, Gaithersburg, Mass. The reaction was incubated at 42° C. for 1 hour. […]
readout_type: IC50 (nM)

compound="COCC(=O)NC(Cc1ccccc1)c1[nH]nc(-c2ccc(F)cc2)c1-c1ccncc1 (stereo not shown) [Example B-0810]" study_target="human p38 kinase alpha (Homo sapiens)" quantitative_result=1110

A = O=C(NC(Cc1ccccc1)c1[nH]nc(-c2ccc(F)cc2)c1-c1ccncc1)C1CCC1 (stereo not shown) [Example B-0836]
B = O=C(NC(Cc1ccccc1)c1[nH]nc(-c2ccc(F)cc2)c1-c1ccncc1)C1CC1 (stereo not shown) [Example B-0837]
Between A and B , which one has the lower reported IC50 value? I would appreciate it if you answered with the label of your choice.
A

====

target: human p38 kinase alpha (Homo sapiens); construct: GST (N, cleaved yes); made in house; host or cells: E. coli DH10B; assay: p38 kinase in vitro assay, phosphorylation of biotinylated PHAS-I with 32P-ATP; format: biochemical; conditions: in vitro P38-alpha kinase inhibition; read-out: P38 alpha kinase IC50
readout_type: IC50 (nM)

compound="C=CCNC(=O)NC(Cc1ccccc1)c1[nH]nc(-c2ccc(F)cc2)c1-c1ccncc1 (centres unmarked) [Example B-0779]" units_symbol=nM quantitative_result=500
compound="CC(NS(=O)(=O)c1ccc(F)c(Cl)c1)c1[nH]nc(-c2ccc(F)cc2)c1-c1ccncc1 (centres unmarked) [Example B-0643]" units_symbol=nM quantitative_result=69

I = Cc1cccc(Cl)c1S(=O)(=O)NC(C)c1[nH]nc(-c2ccc(F)cc2)c1-c1ccncc1 (centres unmarked) [Example B-0644]
II = CC(NC(=O)c1cc(C(F)(F)F)ccc1F)c1[nH]nc(-c2ccc(F)cc2)c1-c1ccncc1 (centres unmarked) [Example B-0683]
III = O=S(=O)(NCCc1[nH]nc(-c2ccc(F)cc2)c1-c1ccncc1)c1cc(S(=O)(=O)c2ccccc2)cs1 [Example B-1112]
IV = O=C(NC(Cc1ccccc1)c1[nH]nc(-c2ccc(F)cc2)c1-c1ccncc1)c1ccc(F)cc1 (centres unmarked) [Example B-0800]
Reorder the items by IC50, least to greatest. The labels, placed in the requested order, form the answer.
I, III, IV, II
(I: 58 nM, III: 580 nM, IV: 1010 nM, II: 13000 nM)

====

molecular target: human p38 kinase alpha (Homo sapiens, UniProt Q16539); construct: GST (N, cleaved yes); made in house; host or cells: E. coli DH10B; test: p38 kinase in vitro assay, phosphorylation of biotinylated PHAS-I with 32P-ATP; format: biochemical; conditions: @ 1.0 uM
readout_type: P38 alpha kinase % inhib @ conc. (% @)

Would you please look over these solved cases?
line_notation=CCCS(=O)(=O)NCCCc1[nH]nc(-c2ccc(F)cc2)c1-c1ccncc1 quantitative_result=92.0
line_notation=O=[N+]([O-])c1ccc(S(=O)(=O)NCc2[nH]nc(-c3ccc(F)cc3)c2-c2ccncc2)cc1 quantitative_result=47.0
line_notation=COc1ccc(NC(=O)NCCCc2[nH]nc(-c3ccc(F)cc3)c2-c2ccncc2)c(OC)c1 quantitative_result=83.0

1 = O=C(NCCCc1[nH]nc(-c2ccc(F)cc2)c1-c1ccncc1)[C@H]1CCCN1
2 = O=C(NCc1[nH]nc(-c2ccc(F)cc2)c1-c1ccncc1)Nc1ccccc1F
Endpoint returns the identifier whose P38 alpha kinase % inhib @ conc. is numerically larger, either 1 or 2 . I would appreciate it if you answered with the label of your choice.
1
(1: 85.0 % @, 2: 23 % @)

====

Target: human p38 kinase alpha (Homo sapiens, UniProt Q16539)
Construct: GST (N, cleaved yes); made in house; host or cells: E. coli DH10B
Assay: p38 kinase in vitro assay, phosphorylation of biotinylated PHAS-I with 32P-ATP
Type: biochemical
Conditions: @ 1.0 uM
Description: The coding region of the human p38a cDNA was obtained by PCR-amplification from RNA isolated from the human monocyte cell line THP.1. […] Random primer, dNTP's and Superscript™ reagents were all purchased from Life-Technologies, Gaithersburg, Mass. The reaction was incubated at 42° C. for 1 hour. […]
readout_type: P38 alpha kinase % inhib @ conc. (uM) (% @)

compound="O=S(=O)(C=Cc1ccccc1)NCCc1[nH]nc(-c2ccc(F)cc2)c1-c1ccncc1 [Example B-1016]" readout_type="P38 alpha kinase % inhib @ conc. (uM)" quantitative_result=58.0
compound="O=C(NCCc1ccccc1)NCCc1[nH]nc(-c2ccc(F)cc2)c1-c1ccncc1 [Example B-0945]" readout_type="P38 alpha kinase % inhib @ conc. (uM)" quantitative_result=96.0
compound="O=C(NCCCc1[nH]nc(-c2ccc(F)cc2)c1-c1ccncc1)c1ccno1 [Example B-1169]" readout_type="P38 alpha kinase % inhib @ conc. (uM)" quantitative_result=80.0
compound="C[C@H](NC(=O)NCCc1[nH]nc(-c2ccc(F)cc2)c1-c1ccncc1)c1ccccc1 [Example B-1042]" readout_type="P38 alpha kinase % inhib @ conc. (uM)" quantitative_result=79.0
compound="CC(C)NC(=O)NCCc1[nH]nc(-c2ccc(F)cc2)c1-c1ccncc1 [Example B-0937]" readout_type="P38 alpha kinase % inhib @ conc. (uM)" quantitative_result=64.0
compound="O=C(NCCc1[nH]nc(-c2ccc(F)cc2)c1-c1ccncc1)Nc1ccc(F)cc1 [Example B-1034]" readout_type="P38 alpha kinase % inhib @ conc. (uM)" quantitative_result=66.0
compound="O=C(NCCc1[nH]nc(-c2ccc(F)cc2)c1-c1ccncc1)c1cccnc1 [Example B-1005]" readout_type="P38 alpha kinase % inhib @ conc. (uM)" quantitative_result=58.0
compound="O=S(=O)(Cc1ccccc1)NCCCc1[nH]nc(-c2ccc(F)cc2)c1-c1ccncc1 [Example B-1194]" readout_type="P38 alpha kinase % inhib @ conc. (uM)" quantitative_result=87.0
compound="CC(C)(C)C(=O)NCCc1[nH]nc(-c2ccc(F)cc2)c1-c1ccncc1 [Example B-1052]" readout_type="P38 alpha kinase % inhib @ conc. (uM)" quantitative_result=69.0
compound="CCCNC(=O)NCCc1[nH]nc(-c2ccc(F)cc2)c1-c1ccncc1 [Example B-1041]" readout_type="P38 alpha kinase % inhib @ conc. (uM)" quantitative_result=70.0
compound="O=C(NCCc1[nH]nc(-c2ccc(F)cc2)c1-c1ccncc1)Nc1cccc(F)c1 [Example B-1046]" readout_type="P38 alpha kinase % inhib @ conc. (uM)" quantitative_result=72.0
compound="O=C(NCCc1[nH]nc(-c2ccc(F)cc2)c1-c1ccncc1)c1ccc(F)c(F)c1F [Example B-0997]" readout_type="P38 alpha kinase % inhib @ conc. (uM)" quantitative_result=69.0
compound="O=C(NCCCc1[nH]nc(-c2ccc(F)cc2)c1-c1ccncc1)c1cccc(Br)c1 [Example B-1167]" readout_type="P38 alpha kinase % inhib @ conc. (uM)" quantitative_result=70.0
compound="O=C(NCCCc1[nH]nc(-c2ccc(F)cc2)c1-c1ccncc1)c1ccccc1I [Example B-1159]" readout_type="P38 alpha kinase % inhib @ conc. (uM)" quantitative_result=66.0
compound="O=C(NCCc1[nH]nc(-c2ccc(F)cc2)c1-c1ccncc1)c1ccncc1 [Example B-1006]" readout_type="P38 alpha kinase % inhib @ conc. (uM)" quantitative_result=69.0
compound="COc1cccc(CC(=O)NCCc2[nH]nc(-c3ccc(F)cc3)c2-c2ccncc2)c1 [Example B-1001]" readout_type="P38 alpha kinase % inhib @ conc. (uM)" quantitative_result=63.0
compound="CC(=O)OC(C)(C)C(=O)NCCCc1[nH]nc(-c2ccc(F)cc2)c1-c1ccncc1 [Example B-1163]" readout_type="P38 alpha kinase % inhib @ conc. (uM)" quantitative_result=74.0

Cited source: patent US6979686B1
